Give measured luciferase signal for each item. Keep answers brief.
# Assayed target: Mitogen-activated protein kinase 7 (Homo sapiens) (UniProt Q13164)
# Sequence (Q13164 whole entry, looked up, the tested form may be a part): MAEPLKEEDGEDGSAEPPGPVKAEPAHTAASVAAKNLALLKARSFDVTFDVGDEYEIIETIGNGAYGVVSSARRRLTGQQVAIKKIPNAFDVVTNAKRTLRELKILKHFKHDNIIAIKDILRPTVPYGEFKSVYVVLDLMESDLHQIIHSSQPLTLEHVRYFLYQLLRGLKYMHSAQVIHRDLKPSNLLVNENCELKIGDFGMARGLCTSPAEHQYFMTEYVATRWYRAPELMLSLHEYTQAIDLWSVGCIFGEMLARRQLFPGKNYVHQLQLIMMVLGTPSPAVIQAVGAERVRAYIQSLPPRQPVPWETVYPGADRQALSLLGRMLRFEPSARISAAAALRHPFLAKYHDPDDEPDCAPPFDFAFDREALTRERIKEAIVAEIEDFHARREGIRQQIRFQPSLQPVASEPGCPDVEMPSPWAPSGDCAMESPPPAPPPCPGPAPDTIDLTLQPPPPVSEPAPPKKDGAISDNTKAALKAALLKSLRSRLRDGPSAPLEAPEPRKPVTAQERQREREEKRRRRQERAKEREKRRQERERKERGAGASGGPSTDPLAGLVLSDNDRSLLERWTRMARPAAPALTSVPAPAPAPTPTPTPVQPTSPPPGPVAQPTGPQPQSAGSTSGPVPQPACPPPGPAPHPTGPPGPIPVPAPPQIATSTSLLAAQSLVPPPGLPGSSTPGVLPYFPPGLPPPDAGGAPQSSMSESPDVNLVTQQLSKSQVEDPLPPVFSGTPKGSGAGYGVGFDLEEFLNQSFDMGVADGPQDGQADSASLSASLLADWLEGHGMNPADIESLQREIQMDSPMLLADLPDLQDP
# Test details: Gal4-ERK5 driven luciferase induction – cell-based, HTS, primary screen (AID 1508626);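 further: luciferase driven by Gal4-ERK5 fusion binding five Gal4 sites before minimal TATA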
# Measurement context: HeLa Gal4-ERK5 transactivation, 18 h, at 5 µM, hits give high values
The source made the active and inactive calls.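 How the source made its calls: active means luciferase signal above three times the same-plate solvent-only control wells; inactive means the rest.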

CCN1CCCC(OC(=O)C(c2ccccc2)c2ccccc2)C1 (stereo unspecified) = 64 AU (inactive)

Record luciferase signal per entry; entries follow.
1. C=CC(N)CCC(=O)O (stereo unspecified)
2. CNC[C@H](O)c1cccc(O)c1
3. O=C(Cn1ccnc1[N+](=O)[O-])NCCO
4. CN1CCC[C@@H]1CCO[C@](C)(c1ccccc1)c1ccc(Cl)cc1
5. CO[C@@]1(NC(=O)CSCC#N)C(=O)N2C(C(=O)O)=C(CSc3nnnn3C)CS[C@@H]21

A.
1. 92 AU (inactive)
2. 40 AU (inactive)
3. 76 AU (inactive)
4. 32 AU (inactive)
5. 108 AU (inactive)

###

Consider the following compounds; for each one, report its fold change.
# Test details: viability loss with induced miR-34 in A549 – imaging, A549 dox-inducible miR-34, nuclei and caspase counts, primary screen (AID 1347080)
# Measurement context: A549 miR-34 inducible, Hoechst nuclei count, 48 h; hits give low values; cell number ratio, induced over uninduced
Activity calls are given as the source filed them.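 How the source made its calls: active means compounds whose cell count with miR-34 switched on is under 0.7 times the count with it off; inactive means the rest.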

Some entries whose results are on file:
COc1ccc(CN(CCN(C)C)c2ncccn2)cc1 = 0.86 (inactive)
CC1=C(C)C(=O)C(C(CCCCCC(=O)O)c2ccccc2)=C(C)C1=O (stereo unspecified) = 0.907 (inactive)
COc1cccc(OC)c1C(=O)N[C@@H]1C(=O)N2[C@@H]1SC(C)(C)[C@@H]2C(=O)O = 0.949 (inactive)

Please state fold change for every compound in the list that follows.
1. CCCCCC(C)N (stereo unspecified)
2. CC(C)c1ccc2oc3nc(N)c(C(=O)O)cc3c(=O)c2c1
3. CC[C@]12CCCN3CCc4c(n(c5ccccc45)[C@@](O)(C(=O)OC)C1)[C@@H]32
4. CCC(=O)c1c(O)cc(O)cc1O
5. NC[C@H]1O[C@H](O[C@H]2[C@H](O)[C@@H](O[C@H]3O[C@H](CO)[C@@H](O)[C@H](N)[C@H]3O)[C@H](N)C[C@@H]2N)[C@H](N)[C@@H](O)[C@@H]1O

A.
1. 0.893 (inactive)
2. 0.955 (inactive)
3. 0.85 (inactive)
4. 0.895 (inactive)
5. 0.901 (inactive)

###

# Tested on: R275C/beta2Delta
# Test details: BK channel mutant inhibitors and activators – cell-based, U2OS BacMam, thallium flux, beta subunits, selectivity assay, profiling panel (AID 1259406);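 further: initial slope of Thallos dye fluorescence rise after thallium is added; log ratio against the mean of 0.3% DMSO vehicle wells on the same plate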
# Measurement context: U2OS BacMam BK variants, at 30 µM
Please respond with reported log fold change Tl+ flux for every item in the list.
One number for each entry.

Solved cases below.
CN(C)CC[C@@H](c1ccc(Cl)cc1)c1ccccn1 = 0.00905
COc1cc(C)c(Cc2cnc(N)nc2N)cc1OC = 0.0143
CCN(CC)CC1CCCCN1CC(=O)N1c2ccccc2C(=O)Nc2cccnc21 (configuration not stated) = 0.0199
CCOc1cc(N)c(Cl)cc1C(=O)NCC1CN(Cc2ccc(F)cc2)CCO1 (configuration not stated) = 0.108

Batch request: log fold change Tl+ flux per item, same order as input.
1. Cc1cccc(C)c1NC(=O)C(C)N (configuration not stated)
2. CC(=O)Oc1ccccc1C(=O)Nc1ncc([N+](=O)[O-])s1
3. Cc1ccnc2c1NC(=O)c1cccnc1N2C1CC1
4. Nc1nc(F)nc2c1ncn2[C@@H]1O[C@H](CO)[C@@H](O)[C@@H]1O
5. CC(C(=O)O)c1ccc(CC2CCCC2=O)cc1 (configuration not stated)
6. CN(CCOc1ccc(NS(C)(=O)=O)cc1)CCc1ccc(NS(C)(=O)=O)cc1

A.
1. -0.0462
2. 0.237
3. 0.0164
4. -0.00769
5. 0.0267
6. -0.0483

Report log fold change Tl+ flux for each item below.
1. CCN(CC)CCNC(=O)c1cc(Cl)c(N)cc1OC
2. COc1ccccc1N1CCN(CC(O)COc2cccc3ccccc23)CC1 (configuration not stated)

A.
[-0.0122, -0.0952]
